Tested on: 653999-131-R-J2-PDC complex spheroids, growth inhibition;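 note: spheroids exposed to the agents for seven days before the readout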
experimental.details: Anticancer human tumor 653999-131-R-J2-PDC patient-derived lung adenocarcinoma cell line growth inhibition [RAS]
protocol.conditions: second compound 0.003 µM; first compound 0.01 µM; hits give low values
The entries below are paired with their reported viability, T/C.

>  <compound>
O=C(c1ccc(F)c(F)c1Nc1ccc(I)cc1F)N1CC(O)([C@@H]2CCCCN2)C1 + CCn1c(-c2cc(N3CCN(C)CC3)cnc2C(C)OC)c2c3cc(ccc31)-c1csc(n1)CC(NC(=O)C1CC1C)C(=O)N1CCCC(N1)C(=O)OCC(C)(C)C2

>  <measurement.units>
%

>  <viability, T/C>
54

$$$$
>  <compound>
C=CC(=O)N1CCN(c2nc(OCC3CCCN3C)nc3c(F)c(-c4nc(N)cc(C)c4C(F)(F)F)c(Cl)cc23)C(C)C1 (stereo not given) + CCn1c(-c2cc(N3CCN(C)CC3)cnc2C(C)OC)c2c3cc(ccc31)-c1csc(n1)CC(NC(=O)C1CC1C)C(=O)N1CCCC(N1)C(=O)OCC(C)(C)C2

>  <measurement.units>
%

>  <viability, T/C>
63

$$$$
>  <compound>
CCN1CCN(Cc2ccc(Nc3ncc(F)c(-c4cc(F)c5nc(C)n(C(C)C)c5c4)n3)nc2)CC1 + CCn1c(-c2cc(N3CCN(C)CC3)cnc2C(C)OC)c2c3cc(ccc31)-c1csc(n1)CC(NC(=O)C1CC1C)C(=O)N1CCCC(N1)C(=O)OCC(C)(C)C2

>  <measurement.units>
%

>  <viability, T/C>
66.9

$$$$
>  <compound>
O=C(c1ccc(F)c(F)c1Nc1ccc(I)cc1F)N1CC(O)([C@@H]2CCCCN2)C1 + CCn1c(-c2cccnc2C(C)OC)c2c3cc(ccc31)N1CCOC(CC(NC(=O)C(C(C)C)N(C)C(=O)C3(F)CCN(C(=O)C#CC(C)(C)N(C)C)CC3)C(=O)N3CCCC(N3)C(=O)OCC(C)(C)C2)C1

>  <measurement.units>
%

>  <viability, T/C>
60

$$$$
>  <compound>
Nc1ccn(C2OC(CO)C(O)C2(F)F)c(=O)n1 (stereo not given) + CCn1c(-c2cc(N3CCN(C)CC3)cnc2C(C)OC)c2c3cc(ccc31)-c1csc(n1)CC(NC(=O)C1CC1C)C(=O)N1CCCC(N1)C(=O)OCC(C)(C)C2

>  <measurement.units>
%

>  <viability, T/C>
43.1

$$$$
